Below, each of the compounds is paired with its reported EC50 value.
# System: Lu1
# assay-text: Cytotoxicity against human Lu1 cells
# Assay type: functional
# experimental-context: read-out: ED50 (the source's name)

Completed entries (count: 5):
CC1(C)CC[C@]2(C)[C@@H](O)C[C@]3(C)C(=CC[C@@H]4[C@@]5(C)CC[C@H](O[C@@H]6O[C@H](CO)[C@@H](O)[C@H](O[C@@H]7OC[C@H](O)[C@H](O)[C@H]7O)[C@H]6O[C@@H]6O[C@H](CO)[C@@H](O)[C@H](O)[C@H]6O)C(C)(C)[C@@H]5CC[C@]43C)[C@@H]2C1 [NEPHELIOSIDE VI] | > 20 µg/mL
CC1(C)CC[C@]2(CO)CC[C@]3(C)C(=CC[C@@H]4[C@@]5(C)CC[C@H](O[C@@H]6OC[C@@H](O)[C@H](O[C@@H]7OC[C@H](O)[C@H](O)[C@H]7O)[C@H]6O[C@@H]6O[C@H](CO)[C@@H](O)[C@H](O)[C@H]6O)C(C)(C)[C@@H]5CC[C@]43C)[C@@H]2C1 [NEPHELIOSIDE I] | 19.5 µg/mL
CC1(C)CC[C@]2(CO)CC[C@]3(C)C(=CC[C@@H]4[C@@]5(C)CC[C@H](O[C@@H]6O[C@H](CO)[C@@H](O)[C@H](O[C@@H]7OC[C@H](O)[C@H](O)[C@H]7O)[C@H]6O[C@@H]6O[C@H](CO)[C@@H](O)[C@H](O)[C@H]6O)C(C)(C)[C@@H]5CC[C@]43C)[C@@H]2C1 [NEPHELIOSIDE II] | > 20 µg/mL
CC1(C)CC[C@]2(C)[C@@H](O)C[C@]3(C)C(=CC[C@@H]4[C@@]5(C)CC[C@H](O[C@@H]6OC[C@@H](O)[C@H](O[C@@H]7OC[C@H](O)[C@H](O)[C@H]7O)[C@H]6O[C@@H]6O[C@H](CO)[C@@H](O)[C@H](O)[C@H]6O)C(C)(C)[C@@H]5CC[C@]43C)[C@@H]2C1 [NEPHELIOSIDE V] | 13.6 µg/mL
CO[C@@H]1C[C@H]2C(C)(C)[C@@H](O[C@@H]3O[C@H](CO)[C@@H](O)[C@H](O[C@@H]4OC[C@H](O)[C@H](O)[C@H]4O)[C@H]3O[C@@H]3O[C@H](CO)[C@@H](O)[C@H](O)[C@H]3O)CC[C@]2(C)[C@H]2CC=C3[C@@H]4CC(C)(C)CC[C@]4(CO)CC[C@@]3(C)[C@@]21C [NEPHELIOSIDE IV] | > 20 µg/mL

Now examine the next entry.
[in] Look up and report measured EC50 for this entry: CC(=O)OC[C@H]1O[C@@H](O[C@@H]2[C@@H](O)[C@H](O[C@H]3CC[C@]4(C)[C@H]5CC=C6[C@@H]7CC(C)(C)CC[C@]7(CO)CC[C@@]6(C)[C@]5(C)CC[C@H]4C3(C)C)OC[C@H]2O)[C@H](O)[C@@H](O)[C@@H]1O
[out] > 20 µg/mL

This collection of values is drawn from ChEMBL document CHEMBL1146478.
